Read-out record for Protein kinase C eta type (Homo sapiens, UniProt P24723): IC50
MEASUREMENT_NAME: IC50 (nM)

Would you please look over these solved cases?
O=C(NC1C2CCC(C2)C1OC(=O)c1cc(O)c(C(=O)c2c(O)cccc2C(=O)O)c(O)c1)c1ccc(O)cc1 (racemic)	20
CC1(C)C2CCC1(C)C(OC(=O)c1cc(O)c(C(=O)c3c(O)cccc3C(=O)O)c(O)c1)C2NC(=O)c1ccc(O)cc1 (stereo not drawn)	310
CN1C2CCC1C(NC(=O)c1ccc(O)cc1)C(OC(=O)c1cc(O)c(C(=O)c3c(O)cccc3C(=O)O)c(O)c1)C2 (stereo in doubt; syn)	2500
O=C(NC1CNC[C@@H]1OC(=O)c1cc(O)c(C(=O)c2c(O)cccc2C(=O)O)c(O)c1)c1ccc(O)cc1 (mixture of isomers)	4

(A) O=C(NC1C2CC(C3CCCC32)C1OC(=O)c1cc(O)c(C(=O)c2c(O)cccc2C(=O)O)c(O)c1)c1ccc(O)cc1 (stereo in doubt; syn)
(B) CN1C2CCC1C(NC(=O)c1ccc(O)cc1)C(OC(=O)c1cc(O)c(C(=O)c3c(O)cccc3C(=O)O)c(O)c1)C2 (stereo in doubt; anti)
(C) O=C(NC1CN2CCC(CC2)C1OC(=O)c1cc(O)c(C(=O)c2c(O)cccc2C(=O)O)c(O)c1)c1ccc(O)cc1 (stereo in doubt; anti)
(D) O=C(NC1CN2CCC(CC2)C1OC(=O)c1cc(O)c(C(=O)c2c(O)cccc2C(=O)O)c(O)c1)c1ccc(O)cc1 (stereo in doubt; syn)
In this exercise, place the 4 molecules in ascending sequence of their recorded IC50. A complete answer lists every label in the requested sequence. C, D, A, B
(C: 26 nM, D: 490 nM, A: 1900 nM, B: 2800 nM)
